The measurements presented in this section are drawn from PubChem BioAssay (NCI).

tested on: K-562 leukemia; assay: NCI tumour cell line growth inhibition, 48 h

Compound	TGI
O=S(=O)(NCCCNc1cc(-c2cn(-c3ccccc3)nc2-c2cccc(O)c2)ccn1)c1ccc(Br)cc1	2.89 µM
CN(C)C=Nc1c(I)cc(I)c(CCC(=O)O)c1I	> 100 µM
CC(=O)NC1COC(COC(=O)CCCCCCCCCCNC(=O)c2ccc([N+](=O)[O-])c3c(=O)c4ccccc4[nH]c23)C(O)C1OC(C)C(=O)NC(C(=O)NC(CCC(N)=O)C(=O)OCc1ccccc1)C(C)C (stereo not drawn)	54.2 µM
CCCCCCCCCCCCSC(=S)c1c(C)[nH]n(CCCCCCCCCCCC)c1=O	> 100 µM
COc1cc(C2OC[C@@H]3C(=O)OC[C@H]23)cc(O)c1OC (stereo partly drawn)	> 100 µM
O=C([CH-]C(=O)c1ccccc1)c1ccccc1.O=C([CH-]C(=O)c1ccccc1)c1ccccc1.O=C([CH-]C(=O)c1ccccc1)c1ccccc1.[Cl-].[Hf+4]	> 100 µM
CCOC(=O)C(NC(=O)CC)(Nc1ccc(F)cc1F)C(F)(F)F (stereo not drawn)	> 100 µM
CCCCCCCCCCOCCOCCOCCOCCCCC(O)CCCCCCCC1=C[C@H](C)OC1=O (stereo partly drawn)	36.3 µM
